The reported measurements were obtained from PubChem BioAssay AID1709.

Assay: Assay for Inhibitors of Tau-Mediated Microtubule Assembly
Details: purified tubulin + K18 tau, A340 turbidity kinetics, 45 min, at 50 µM; stronger effect = lower value
Method: NIH Molecular Libraries Probe Production Network [MLPCN] NIH Chemical Genomics Center [NCGC] […] Microtubule assembly was monitored by the change in absorbance at 340 nm. […] NCGC Assay Protocol Summary: Lyophilized bovine brain tubulin was reconstituted in RAB (100 mM MES, pH 6.9; 1 mM EDTA; 0.5 mM MgSO4) at a concentration of 10 mg/ml. […] The plate was incubated in a Spectramax M5 plate reader at 37 C and the absorbance at 340 nm was read every minute for 45 minutes.
max turbidity under 0.8 gets label 1, anything at or over 0.8 gets label 0.

[[record]]
compound = "COC(=O)c1c(NC(=O)CCCOc2ccc(C)cc2)sc2c1C(C(=O)OC)CC2 (stereo not given)"
class_name = "label 1"

[[record]]
compound = "O=C(Cc1ccccc1)Nc1sc2c(c1C(=O)Nc1ccc(Cl)cc1)CCCC2"
class_name = "label 1"

[[record]]
compound = "COC(=O)c1c(NC(=O)C(C)(C)C)sc2c1C(C(=O)OC)CC2 (stereo not given)"
class_name = "label 0"


Ask: Check if max turbidity falls below 0.8 for COC(=O)c1c(NC(=O)CCCOc2cccc(C)c2)sc2c1C(C(=O)OC)CC2 (stereo not given) .
Reply: label 0

Ask: Check if max turbidity falls below 0.8 for COC(=O)c1c(NC(=O)CCCOc2ccc(C(C)(C)C)cc2)sc2c1C(C(=O)OC)CC2 (stereo not given) .
Reply: label 0
